Assay: aqueous kinetic solubility
Conditions: aqueous kinetic solubility
Sol. reference

CC1=C(C(=O)Nc2ccccn2)C(c2ccccc2Cl)N=C(Nc2nc3ccccc3o2)N1 (stereo not shown) [Compound 214]	<1 µg/mL
COc1ccc(C2N=C(Nc3nc4ccccc4o3)NC(C)=C2C(=O)Nc2nncs2)c(Cl)c1 (stereo not shown) [Compound 266]	<1 µg/mL
CC1=C(C(=O)NCc2cn(C)cn2)[C@@H](c2ccccc2Cl)N=C(Nc2nc3ccccc3o2)N1 [Compound 236]	40.5 µg/mL
CC1=C(C(=O)Nc2ccc(N(C)C)cc2)C(c2ccccc2Cl)N=C(Nc2nc3ccccc3o2)N1 (stereo not shown) [Compound 152]	<1 µg/mL
CC1=C(C(=O)Nc2nnc(C)s2)C(c2ccccc2Cl)N=C(Nc2nc3ccccc3o2)N1 (stereo not shown) [Compound 173]	<1 µg/mL

In plain terms, CCn1cc(CNC(=O)C2=C(C)NC(Nc3nc4ccc(F)c(N)c4o3)=NC2c2ccccc2Cl)cn1 (stereo not shown) [Compound 136] has a documented Sol. of 23.87 µg/mL

In plain terms, CCn1ncc(CNC(=O)C2=C(C)NC(Nc3nc4ccc(F)c(N)c4o3)=NC2c2ccc(C)cc2Cl)c1F (stereo not shown) [Compound 133] has a documented Sol. of <1 µg/mL

###

Experiment: aqueous kinetic solubility
Details: aqueous kinetic solubility
Sol. reference

CC1=C(C(=O)Nc2ccccc2)C(c2ccccc2Cl)N=C(Nc2nc3ccccc3o2)N1 (stereo not drawn)	<1 µg/mL
COCCNC(=O)C1CC(=O)C2=C(C1)NC(Nc1nc3ccccc3o1)=NC2c1ccccc1Cl (stereo not drawn)	4.23 µg/mL
CC1=C(C(=O)Nc2nnc(-c3cccnc3)s2)C(c2ccccc2Cl)N=C(Nc2nc3ccccc3o2)N1 (stereo not drawn)	<1 µg/mL

In plain terms, CC1=C(C(=O)Nc2cccc(F)c2)C(c2ccccc2Cl)N=C(Nc2nc3ccccc3o2)N1 (stereo not drawn) has a documented Sol. of <1 µg/mL

In plain terms, CC1=C(C(=O)NCc2cn(C)cn2)[C@H](c2ccccc2Cl)N=C(Nc2nc3ccccc3o2)N1 has a documented Sol. of 46.1 µg/mL

In plain terms, CC1=C(C(=O)Nc2ccc(C(=O)N3CCOCC3)cc2)C(c2ccccc2Cl)N=C(Nc2nc3ccccc3o2)N1 (stereo not drawn) has a documented Sol. of <1 µg/mL

In plain terms, COC(=O)c1csc(NC(=O)C2=C(C)NC(Nc3nc4ccccc4o3)=NC2c2ccccc2Cl)n1 (stereo not drawn) has a documented Sol. of <1 µg/mL

In plain terms, CC1=C(C(=O)Nc2cc(CO)ccn2)C(c2ccccc2Cl)N=C(Nc2nc3ccccc3o2)N1 (stereo not drawn) has a documented Sol. of <1 µg/mL

###

Target: recombinant human GALK1 (Homo sapiens)
Assay: hGALK1 biochemical activity assay (Kinase-Glo Plus, ATP depletion)
Conditions: recombinant human GALK1, Kinase-Glo Plus ATP depletion; read-out: hGALK
Measure: pIC50
Scale note: pIC50 = -log10(concentration in M).

Please review the entries below; each comes with its answer.
COC(=O)c1ccnc(NC(=O)C2=C(C)NC(Nc3nc4ccc(F)cc4o3)=N[C@H]2c2ccccc2Cl)c1	5.51
COC(=O)Cc1cccc(NC(=O)C2=C(C)NC(Nc3nc4ccccc4o3)=NC2c2ccccc2Cl)c1 (stereo not shown)	4.96
CC1=C(C(=O)Nc2cc(C(=O)O)ccn2)C(c2ccc(C(=O)O)cc2Cl)N=C(Nc2nc3ccc(F)cc3o2)N1 (stereo not shown)	5.66
COC(=O)c1ccnc(NC(=O)C2=C(C)NC(Nc3nc4ccccc4o3)=N[C@H]2c2ccccc2Cl)c1	5.46
CC1=C(C(=O)NCc2nccn2C)C(c2ccccc2Cl)N=C(Nc2nc3ccccc3o2)N1 (stereo not shown)	4.81
CC1=C(C(=O)Nc2cc(C(=O)O)ccn2)[C@@H](c2ccc(C)cc2Cl)N=C(Nc2nc3cccc(N)c3o2)N1	5.46

In plain terms, CC1=C(C(=O)Nc2ccc(C(=O)N3CCOCC3)cc2)C(c2ccccc2Cl)N=C(Nc2nc3ccccc3o2)N1 (stereo not shown) has a documented pIC50 of 4.71

###

IC50 reference
Target: recombinant human GALK1 (Homo sapiens)
Experiment: hGALK1 biochemical activity assay (Kinase-Glo Plus, ATP depletion)
Settings: Tables 2-15; 35 μM ATP, 100 μM galactose, 1 h; bracketed figure after some values (e.g. −1.2) is undefined and not reported; read-out: hGALK IC50

CC1=C(C(=O)Nc2cc(C(N)=O)ccn2)C(c2ccccc2Cl)N=C(Nc2nc3ccc(F)cc3o2)N1 (stereo not drawn)	4.85 µM
CC1=C(C(=O)Nc2cncc(C(=O)O)c2)C(c2ccccc2Cl)N=C(Nc2nc3ccccc3o2)N1 (stereo not drawn)	4.32 µM
CC1=C(C(=O)NCc2cnn(C)c2)C(c2ccc(C)cc2Cl)N=C(Nc2nc3ncccc3o2)N1 (stereo not drawn)	15.3 µM
CC1=C(C(=O)Nc2ccccc2Cl)C(c2ccccc2Cl)N=C(Nc2nc3ccccc3o2)N1 (stereo not drawn)	4.32 µM
CC1=C(C(=O)NCc2ccc(CO)cc2)C(c2ccccc2Cl)N=C(Nc2nc3ccccc3o2)N1 (stereo not drawn)	6.85 µM
CC1=C(C(=O)Nc2cc(C(=O)O)ccn2)C(c2ccccc2Cl)N=C(Nc2nc3cc(F)ccc3o2)N1 (stereo not drawn)	3.43 µM
CCOC(=O)c1nnc(NC(=O)C2=C(C)NC(Nc3nc4ccccc4o3)=NC2c2ccccc2Cl)s1 (stereo not drawn)	4.85 µM
CC1=C(C(=O)Nc2cc(C(=O)O)ccn2)C(c2ccc(-c3ccc(C(F)(F)F)nc3)cc2Cl)N=C(Nc2nc3ccc(F)cc3o2)N1 (stereo not drawn)	1.21 µM

In plain terms, CCn1ncc(CNC(=O)C2=C(C)NC(Nc3nc4ccc(F)c(N)c4o3)=NC2c2ccc(C)cc2Cl)c1F (stereo not drawn) has a documented IC50 of 0.11 µM

In plain terms, CC1=C(C(=O)Nc2cccc(-c3nnn[nH]3)c2)C(c2ccccc2Cl)N=C(Nc2nc3ccccc3o2)N1 (stereo not drawn) has a documented IC50 of 19.3 µM

In plain terms, CC1=C(C(=O)NCc2cnn(C)c2)C(c2ccc(C)cc2Cl)N=C(Nc2nc3cccnc3o2)N1 (stereo not drawn) has a documented IC50 of 17.2 µM

In plain terms, COC(=O)c1ccnc(NC(=O)C2=C(C)NC(Nc3nc4ccccc4o3)=NC2c2ccccc2Cl)c1 (stereo not drawn) has a documented IC50 of 2.73 µM

In plain terms, CC1=C(C(=O)Nc2cccc(-c3cn[nH]c3)c2)C(c2ccccc2Cl)N=C(Nc2nc3ccccc3o2)N1 (stereo not drawn) has a documented IC50 of 17.2 µM

In plain terms, CC1=C(C(=O)NCc2cccnc2)C(c2ccccc2Cl)N=C(Nc2nc3ccccc3o2)N1 (stereo not drawn) has a documented IC50 of 6.85 µM

In plain terms, CC1=C(C(=O)Nc2cc(C(=O)O)ccn2)C(c2ccccc2Cl)N=C(Nc2nc3cc(C)ccc3o2)N1 (stereo not drawn) has a documented IC50 of 1.37 µM

###

Target: recombinant human GALK1 (Homo sapiens, UniProt P51570)
Sequence (P51570 whole entry): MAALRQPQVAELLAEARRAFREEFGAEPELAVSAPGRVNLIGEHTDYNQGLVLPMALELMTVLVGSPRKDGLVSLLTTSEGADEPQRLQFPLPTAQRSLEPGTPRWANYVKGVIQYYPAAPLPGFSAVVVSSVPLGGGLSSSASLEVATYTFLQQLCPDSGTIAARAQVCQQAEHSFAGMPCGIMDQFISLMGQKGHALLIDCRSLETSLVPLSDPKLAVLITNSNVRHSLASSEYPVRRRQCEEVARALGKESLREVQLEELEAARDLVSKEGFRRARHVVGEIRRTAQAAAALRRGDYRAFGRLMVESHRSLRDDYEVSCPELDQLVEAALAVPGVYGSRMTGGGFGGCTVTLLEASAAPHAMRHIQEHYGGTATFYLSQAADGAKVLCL
Experiment: hGALK1 biochemical activity assay (Kinase-Glo Plus, ATP depletion)
Conditions: recombinant human GALK1, Kinase-Glo Plus ATP depletion; read-out: hGALK
Measure: IC50 (µM)
Express the result in µM but write the number alone.

CC1=C(C(=O)Nc2cc(C(=O)O)ccn2)[C@H](c2ccccc2Cl)N=C(Nc2nc3ccc(F)cc3o2)N1	0.24

In plain terms, CC1=C(C(=O)NCc2cnn(C)c2)C(c2ccc(C)cc2Cl)N=C(Nc2nc3cccc(N)c3o2)N1 (racemic) has a documented IC50 of 0.22

In plain terms, CC1=C(C(=O)Nc2cc(C(=O)O)ccn2)C(c2ccc(Br)cc2Cl)N=C(Nc2nc3ccc(F)cc3o2)N1 (centres unmarked) has a documented IC50 of 1.09

In plain terms, CCn1cc(CNC(=O)C2=C(C)NC(Nc3nc4cccc(N)c4o3)=NC2c2ccc(C)cc2Cl)cn1 (centres unmarked) has a documented IC50 of 0.17

In plain terms, CC1=C(C(=O)Nc2cc(C(=O)O)ccn2)C(c2ccc(-c3ccc(C(F)(F)F)cc3)cc2Cl)N=C(Nc2nc3ccc(F)cc3o2)N1 (centres unmarked) has a documented IC50 of 7.69

In plain terms, CC1=C(C(=O)Nc2cc(C(N)=O)ccn2)C(c2ccccc2Cl)N=C(Nc2nc3ccc(F)cc3o2)N1 (centres unmarked) has a documented IC50 of 4.85

###

Molecular target: recombinant human GALK1 (Homo sapiens)
Experiment: hGALK1 biochemical activity assay (Kinase-Glo Plus, ATP depletion)
Settings: recombinant human GALK1, Kinase-Glo Plus ATP depletion; read-out: hGALK
Decide using IC50 alone. Strictly below 2 µM: yes. Equal to or above 2 µM: no.

COc1ccc2nc(NC3=NC(c4ccccc4Cl)C(C(=O)Nc4cc(C(=O)O)ccn4)=C(C)N3)oc2c1 (stereo not shown)	no
COc1ccccc1CNC(=O)C1=C(C)NC(Nc2nc3ccccc3o2)=NC1c1ccccc1Cl (stereo not shown)	no
CC1=C(C(=O)Nc2cc(C(=O)O)ccn2)C(c2cccc(C(N)=O)c2)N=C(Nc2nc3ccc(F)cc3o2)N1 (stereo not shown)	no
CC1=C(C(=O)NCc2cnn(Cc3ccccc3)c2)C(c2ccc(C)cc2Cl)N=C(Nc2nc3cccc(N)c3o2)N1 (stereo not shown)	yes
CC1=C(C(=O)Nc2ccccn2)C(c2ccccc2Cl)N=C(Nc2nc3ccccc3o2)N1 (stereo not shown)	no
CC1=C(C(=O)Nc2cc(C(=O)O)ccn2)C(c2cc(C(=O)O)ccc2Cl)N=C(Nc2nc3ccc(F)cc3o2)N1 (stereo not shown)	yes

IN: IC50 strictly < 2 µM for this compound? CC1=C(C(=O)Nc2ncc(C(=O)O)s2)C(c2ccccc2Cl)N=C(Nc2nc3ccccc3o2)N1 (stereo not shown)
OUT: yes
